target: mRORγ (Mus musculus, UniProt P51450)
Construct: expressed in transfected cells; host or cells: CHO cells, transient transfection
Sequence (P51450 with tags, fused parts or gaps): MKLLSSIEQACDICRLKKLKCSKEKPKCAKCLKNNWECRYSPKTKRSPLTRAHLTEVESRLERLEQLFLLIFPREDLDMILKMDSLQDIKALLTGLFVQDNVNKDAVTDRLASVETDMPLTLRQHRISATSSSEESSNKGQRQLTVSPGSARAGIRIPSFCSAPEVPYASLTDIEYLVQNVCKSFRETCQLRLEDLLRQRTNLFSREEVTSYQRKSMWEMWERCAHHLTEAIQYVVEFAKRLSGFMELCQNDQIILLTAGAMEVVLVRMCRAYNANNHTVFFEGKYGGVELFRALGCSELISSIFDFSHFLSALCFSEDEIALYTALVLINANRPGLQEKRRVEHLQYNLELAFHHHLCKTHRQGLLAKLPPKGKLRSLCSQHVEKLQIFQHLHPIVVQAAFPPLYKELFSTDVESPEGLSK
assayProtocol: Transcriptional assay, Gal4-mRORγ with luciferase reporter in CHO cells
Assay type: cell-based
measurementParameters: Table 2; agonists; antagonist OR-376 (1.5 μM) added to reduce basal transcriptional activity; read-out: EC50 in micromolar at mRORγ Transcriptional
pEC50: −log10 of the molar value.
valueType: pEC50

Take a look at these entries with their results.
INPUT: Using known records, supply pEC50 for CC(CCC(=O)N1CCCCC1)C1CCC2C1CCC1C3CCC(O)CC3C(O)CC21 (stereo not drawn)
OUTPUT: < 4.70

INPUT: Using known records, supply pEC50 for CNC(=O)CCC(C)C1CCC2C1CCC1C3CCC(O)CC3C(O)CC21 (stereo not drawn)
OUTPUT: < 4.70

--- query ---
INPUT: Using known records, supply pEC50 for CC(CCC(=O)O)C1CCC2C1CCC1C3CCC(O)CC3C(O)CC21 (stereo not drawn)
OUTPUT: < 4.70
